Assay: inhibitors of mitochondrial cytochrome c release, biochemical, purified mitochondria (AID 1603);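 further: mouse liver mitochondria challenged with calcium chloride; signal normalized to the plate average as 100%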
Conditions: stronger effect = lower value
propertyLabel: cytochrome c release ratio
# respond with the number and nothing more

Record "Cc1cccc(Nc2ccccc2C(=O)O)c1C" , field cytochrome c release ratio: 1

// "CO[C@@]1(NC(=O)Cc2cccs2)C(=O)N2C(C(=O)O)=C(COC(N)=O)CS[C@@H]21" : cytochrome c release ratio value = 0.94

// sample "O=C1NC(=O)C(c2ccccc2)(c2ccccc2)N1" , its cytochrome c release ratio was 0.9

Given item "NNCCc1ccccc1" , the value recorded as its cytochrome c release ratio is 1.02

CC(C)(C)NCC(O)COc1cccc2c1C[C@H](O)[C@H](O)C2 (some centres not stated) has a reported cytochrome c release ratio of 0.46

Looking up "OCCN(CCO)c1nc(N2CCCCC2)c2nc(N(CCO)CCO)nc(N3CCCCC3)c2n1" , I found its cytochrome c release ratio recorded as 1.1

Source of measurements: PubChem BioAssay
